# Test method notes: Solubility of crystalline HCl salt in various solvents (visual dissolution)
# Format: physicochemical
# Assay setup: 22 °C, organic solvent or mixture, thermodynamic from solid; Tetrahydrofuran; ambient temperature, visual inspection
Assay metric: Solubility

// Input: [2H][C@]1(Cc2ccc(OCCc3ccc(CC)cn3)cc2)SC(=O)NC1=O [deuterium-enriched (R)-pioglitazone] . Output its Solubility only. 5000 to 10000 µg/mL

---

# Test method notes: Solubility of crystalline HCl salt in various solvents (visual dissolution)
# Format: physicochemical
# Assay setup: 22 °C, organic solvent or mixture, thermodynamic from solid; Ethanol; ambient temperature, visual inspection
# Procedure: […]; (ii) the resulting mixtures were then stirred at ambient temperature (about 21° C. to about 23° C.) for 5-10 minutes; (iii) the mixtures were then visually inspected to determine if the crystalline HCl salt had completely dissolved; (iv) if the crystalline HCl salt had not completely dissolved more solvent was added until complete dissolution occurred. […] The solubilities were then calculated using the total quantity of crystalline HCl salt and solvent used for each solvent.
Assay metric: Solubility

Give me measured Solubility, please, for this compound: [2H][C@]1(Cc2ccc(OCCc3ccc(CC)cn3)cc2)SC(=O)NC1=O [deuterium-enriched (R)-pioglitazone] 5000 to 10000 µg/mL
